Recorded values, source paper PMC10786891.

- test_system: T1, EsCas13d, nuclease-dead (Eubacterium siraeum, UniProt B0MS50, R295A;H300A;R849A;H854A)
- T1 sequence: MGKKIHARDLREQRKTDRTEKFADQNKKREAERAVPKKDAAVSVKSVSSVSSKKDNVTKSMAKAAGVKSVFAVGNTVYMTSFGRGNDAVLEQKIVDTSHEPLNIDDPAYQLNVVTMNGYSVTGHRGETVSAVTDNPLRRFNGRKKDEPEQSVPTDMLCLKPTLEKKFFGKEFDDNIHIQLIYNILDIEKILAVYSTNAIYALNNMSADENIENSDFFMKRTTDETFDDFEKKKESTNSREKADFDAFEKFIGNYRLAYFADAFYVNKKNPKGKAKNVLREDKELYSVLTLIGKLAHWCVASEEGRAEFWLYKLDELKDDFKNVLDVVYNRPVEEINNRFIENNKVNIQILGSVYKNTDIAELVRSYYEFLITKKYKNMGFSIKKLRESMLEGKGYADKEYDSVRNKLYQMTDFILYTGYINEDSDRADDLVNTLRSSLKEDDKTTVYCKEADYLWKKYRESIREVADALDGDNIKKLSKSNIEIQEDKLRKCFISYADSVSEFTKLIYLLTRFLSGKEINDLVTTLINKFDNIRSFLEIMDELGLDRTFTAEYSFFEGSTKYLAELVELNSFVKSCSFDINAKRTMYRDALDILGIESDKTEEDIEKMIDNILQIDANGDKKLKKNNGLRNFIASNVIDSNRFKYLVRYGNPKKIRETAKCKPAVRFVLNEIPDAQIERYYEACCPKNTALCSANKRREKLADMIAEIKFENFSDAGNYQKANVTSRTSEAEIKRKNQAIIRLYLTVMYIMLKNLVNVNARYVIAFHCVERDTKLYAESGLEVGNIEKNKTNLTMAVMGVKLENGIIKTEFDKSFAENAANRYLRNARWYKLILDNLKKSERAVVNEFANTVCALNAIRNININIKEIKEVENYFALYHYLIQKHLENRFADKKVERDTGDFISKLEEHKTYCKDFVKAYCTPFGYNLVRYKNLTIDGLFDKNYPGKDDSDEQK
- experiment_description: crRNA (strand 1, pre-loaded); Mg2+; 40 mM Tris-HCl pH 7.5, 150 mM NaCl, 6 mM MgCl2, 1 mM DTT, 0.1% Tween-20, 0.2 mg/ml BSA; 25 C; 10 min per concentration, then washed
- test_parameters: tags: His6-TwinStrep-SUMO cleaved; N-terminal SNAP kept (SNAP-Surface 488); label: 3' end held by stalled T7 RNA polymerase
readout_label: pKd
Give bare numbers, as −log10 of the molar value.

For each listed entry, give its pKd.
1. target 2 MT 5'PFS UAU 3'PFS CGU (mixed) RNA 1: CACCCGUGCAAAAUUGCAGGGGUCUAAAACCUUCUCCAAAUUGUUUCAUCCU RNA 2: GGGAAUGGAUCCACAUCUACGAAUUCUAUAGGAUGAAACAAUUUGGAGAAGCGUAGAUCGGAAGAGCACACGU
2. target 2 MT 5'PFS CUG 3'PFS AAU (mixed) RNA 1: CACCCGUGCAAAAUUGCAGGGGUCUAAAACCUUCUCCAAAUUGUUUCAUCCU RNA 2: GGGAAUGGAUCCACAUCUACGAAUUCCUGAGGAUGAAACAAUUUGGAGAAGAAUAGAUCGGAAGAGCACACGU
3. target 1 insU 3' of 20,insC 3' of 9 (mixed) RNA 1: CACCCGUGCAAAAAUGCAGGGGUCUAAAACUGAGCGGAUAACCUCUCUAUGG RNA 2: GGGAAUGGAUCCACAUCUACGAAUUCGUACCAUUAGAGAGGUUACUCCGCUCACCGAGAUCGGAAGAGCACACGU
4. target 2 MT 5'PFS GAG 3'PFS CGU (mixed) RNA 1: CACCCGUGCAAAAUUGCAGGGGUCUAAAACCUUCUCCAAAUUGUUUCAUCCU RNA 2: GGGAAUGGAUCCACAUCUACGAAUUCGAGAGGAUGAAACAAUUUGGAGAAGCGUAGAUCGGAAGAGCACACGU
5. target 3 insU 3' of 11 (mixed) RNA 1: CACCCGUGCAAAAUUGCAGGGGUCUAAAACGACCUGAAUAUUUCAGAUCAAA RNA 2: GGGAAUGGAUCCACAUCUACGAAUUCGUUUUUGAUCUGAAAUUAUUCAGGUCUGCAGAUCGGAAGAGCACACGU
6. target 2 MT 5'PFS ACA 3'PFS UCA (mixed) RNA 1: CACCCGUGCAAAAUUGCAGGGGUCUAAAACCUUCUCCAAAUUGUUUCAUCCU RNA 2: GGGAAUGGAUCCACAUCUACGAAUUCACAAGGAUGAAACAAUUUGGAGAAGUCAAGAUCGGAAGAGCACACGU

Ans:
[7.81, 8.44, 7.65, 8.03, 7.09, 8.06]

For each listed entry, give its pKd.
1. target 2 MT 5'PFS GGG 3'PFS AUA (mixed) RNA 1: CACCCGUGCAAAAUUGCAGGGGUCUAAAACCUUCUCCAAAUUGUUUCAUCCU RNA 2: GGGAAUGGAUCCACAUCUACGAAUUCGGGAGGAUGAAACAAUUUGGAGAAGAUAAGAUCGGAAGAGCACACGU
2. target 1 insC 3' of 20,insC 3' of 16 (mixed) RNA 1: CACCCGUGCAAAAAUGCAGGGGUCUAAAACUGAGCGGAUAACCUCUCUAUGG RNA 2: GGGAAUGGAUCCACAUCUACGAAUUCGUACCACUAGACGAGGUUAUCCGCUCACCGAGAUCGGAAGAGCACACGU
3. target 1 insU 3' of 15,insG 3' of 1 (mixed) RNA 1: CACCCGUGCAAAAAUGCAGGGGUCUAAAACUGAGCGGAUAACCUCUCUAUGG RNA 2: GGGAAUGGAUCCACAUCUACGAAUUCGUACCAUAGAGUAGGUUAUCCGCUCAGCCGAGAUCGGAAGAGCACACGU
4. target 1 MT 5'PFS GGA 3'PFS UCG (mixed) RNA 1: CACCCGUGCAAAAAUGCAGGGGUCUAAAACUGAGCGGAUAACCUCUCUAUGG RNA 2: GGGAAUGGAUCCACAUCUACGAAUUCGGACCAUAGAGAGGUUAUCCGCUCAUCGAGAUCGGAAGAGCACACGU

Ans:
8.15
7.80
7.94
7.97

For each listed entry, give its pKd.
1. target 3 G3U (mixed) RNA 1: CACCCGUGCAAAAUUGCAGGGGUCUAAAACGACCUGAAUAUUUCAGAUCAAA RNA 2: GGGAAUGGAUCCACAUCUACGAAUUCGUUUUUGAUCUGAAAUAUUCAGUUCUGCAGAUCGGAAGAGCACACGU
2. target 1 G17C,C21U (mixed) RNA 1: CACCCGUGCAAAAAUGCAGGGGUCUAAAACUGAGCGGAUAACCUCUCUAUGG RNA 2: GGGAAUGGAUCCACAUCUACGAAUUCGUACUAUACAGAGGUUAUCCGCUCACCGAGAUCGGAAGAGCACACGU
3. target 2 MT 5'PFS CUG 3'PFS AGC (mixed) RNA 1: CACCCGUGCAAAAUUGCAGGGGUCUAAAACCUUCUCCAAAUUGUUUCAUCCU RNA 2: GGGAAUGGAUCCACAUCUACGAAUUCCUGAGGAUGAAACAAUUUGGAGAAGAGCAGAUCGGAAGAGCACACGU
4. target 3 G3U,U7A (mixed) RNA 1: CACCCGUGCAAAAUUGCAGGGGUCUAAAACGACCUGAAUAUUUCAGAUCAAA RNA 2: GGGAAUGGAUCCACAUCUACGAAUUCGUUUUUGAUCUGAAAUAUACAGUUCUGCAGAUCGGAAGAGCACACGU

Ans:
7.64
8.12
8.60
7.43
